# Method: Highest frequency of moderate liver toxicity observed during clinical trials, expressed as a percentage. [column '% BIOL' in source]
# Stated conditions: human
Recorded endpoint: Hepatotoxicity (moderate) (%)
Please respond with the number in % and leave the unit unwritten.

Sample COc1cccc2c1C(=O)c1c(O)c3c(c(O)c1C2=O)C[C@@](O)(/C(C)=N/NC(=O)c1ccccc1)C[C@@H]3O[C@H]1C[C@H](N)[C@H](O)[C@H](C)O1 — what was its Hepatotoxicity (moderate)?
51.7

Continue with CC(=O)Oc1cccc2c1C(=O)c1c(OC(C)=O)cc(C(=O)O)cc1C2=O
0

Continue with NS(=O)(=O)c1cc2c(cc1Cl)NC(C(Cl)Cl)NS2(=O)=O (centres undefined) [TRICHLORMETHIAZIDE]
0

Continue with C[C@@H]1CN(c2c(F)c(N)c3c(=O)c(C(=O)O)cn(C4CC4)c3c2F)C[C@H](C)N1
20

----------
# Stated conditions: human
Recorded endpoint: Hepatotoxicity (severe hepatitis)
Answer with a number only.

Molecule: Nc1c2c(nc3ccccc13)CCCC2O (stereo not drawn) [VELNACRINE]
Hepatotoxicity (severe hepatitis): 0
--
Molecule: COc1ccc([C@@H]2Sc3cc(Cl)ccc3N(CCN(C)C)C(=O)[C@@H]2OC(C)=O)cc1 [CLENTIAZEM]
Hepatotoxicity (severe hepatitis): 0
--
Molecule: CC[C@]1(O)C[C@H]2CN(CCc3c([nH]c4ccccc34)[C@@](C(=O)OC)(c3cc4c(cc3OC)N(C=O)[C@H]3[C@@](O)(C(=O)OC)[C@H](OC(C)=O)[C@]5(CC)C=CCN6CC[C@]43[C@@H]65)C2)C1 [VINCRISTINE]
Hepatotoxicity (severe hepatitis): 4
--
Molecule: CCC(=O)NS(=O)(=O)c1ccc(-c2c(-c3ccccc3)noc2C)cc1 [PARECOXIB]
Hepatotoxicity (severe hepatitis): 0
--
Molecule: CCOC(=O)C(C)(C)Oc1ccc(Cl)cc1 [CLOFIBRATE]
Hepatotoxicity (severe hepatitis): 0
--
Molecule: CC(O)CCC(=O)c1ccoc1 (stereo not drawn)
Hepatotoxicity (severe hepatitis): 1
--
Molecule: CN(CCOc1ccc(CC2SC(=O)NC2=O)cc1)c1ccccn1 (stereo not drawn) [ROSIGLITAZONE]
Hepatotoxicity (severe hepatitis): 5
--
Molecule: N[C@@H]1CN(c2c(F)cc3c(=O)c(C(=O)O)cn([C@@H]4C[C@@H]4F)c3c2Cl)CC12CC2 [SITAFLOXACIN ANHYDROUS]
Hepatotoxicity (severe hepatitis): 0

Sample CC(C)NCC(O)COc1cccc2ccccc12 (stereo not drawn) [PROPRANOLOL] — what was its Hepatotoxicity (severe hepatitis)?
0

Continue with CN1C(=O)OC(C)(C)C1=O [TRIMETHADIONE]
0

Continue with CCOC(=O)[C@H](CCc1ccccc1)N[C@H]1CCCN2CCC[C@@H](C(=O)O)N2C1=O [CILAZAPRIL]
0

Continue with COC(=O)C(c1ccccc1)C1CCCCN1 (stereo not drawn) [METHYLPHENIDATE]
2

Continue with C#C[C@]1(O)CC[C@H]2[C@@H]3CCC4=Cc5oncc5C[C@]4(C)[C@H]3CC[C@@]21C [DANAZOL]
2

Continue with C[C@]12CC[C@H]3[C@@H](CCC4=CC(=O)CC[C@@H]43)[C@@H]1CC[C@@H]2O [NANDROLONE]
0

----------
# Method: Highest frequency of acute liver toxicity observed during clinical trials, expressed as a percentage. [column '% AIGUE' in source]
# Stated conditions: human
Reported Hepatotoxicity (acute) values for the following compounds.
Please respond with the number in % and leave the unit unwritten.

Compound: CC1(C)S[C@@H]2[C@H](NC(=O)C(c3ccccc3)S(=O)(=O)O)C(=O)N2[C@H]1C(=O)O (stereo partly specified)
Recorded endpoint: Hepatotoxicity (acute)
Number: 1
--
Compound: C[C@H](CCC(=O)O)[C@H]1CC[C@H]2[C@@H]3[C@H](O)C[C@@H]4C[C@H](O)CC[C@]4(C)[C@H]3CC[C@]12C
Recorded endpoint: Hepatotoxicity (acute)
Number: 3
--
Compound: O=C(O)c1cc(/N=N/c2ccc(S(=O)(=O)Nc3ccccn3)cc2)ccc1O
Recorded endpoint: Hepatotoxicity (acute)
Number: 5.7
--
Compound: CC(=O)[C@H]1CC[C@H]2[C@@H]3CC[C@H]4C[C@H](O)CC[C@]4(C)[C@H]3C(=O)C[C@]12C.C[C@]12CC[C@@H](O)C[C@@H]1CC[C@H]1[C@@H]3CC[C@H](C(=O)CO)[C@@]3(C)CC(=O)[C@@H]12
Recorded endpoint: Hepatotoxicity (acute)
Number: 0
--
Compound: O=C(O)c1cccnc1Nc1cccc(C(F)(F)F)c1
Recorded endpoint: Hepatotoxicity (acute)
Number: 0

# evaluate next
Sample CNC(=O)C[C@@H](N)C(=O)N[C@@H](C(=O)N[C@@H]1C(=O)N2[C@@H]1SC(C)(C)[C@@H]2C(=O)O)c1ccc(O)cc1 — what was its Hepatotoxicity (acute)?
0

----------
# Method: Highest frequency of moderate liver toxicity observed during clinical trials, expressed as a percentage. [column '% BIOL' in source]
# Stated conditions: human
Reported Hepatotoxicity (moderate) values for the following molecules.
Please respond with the number in % and leave the unit unwritten.

# count of solved cases: 2
Molecule: Nc1cc([As]2[As](c3ccc(O)c(N)c3)[As](c3ccc(O)c(N)c3)[As](c3ccc(O)c(N)c3)[As]2c2ccc(O)c(N)c2)ccc1O.Nc1cc([As]2[As](c3ccc(O)c(N)c3)[As]2c2ccc(O)c(N)c2)ccc1O (configuration not stated)
Number: 0
--
Molecule: O=C1CC2(CCCC2)CC(=O)N1CCCCN1CCN(c2nsc3ccccc23)CC1 [TIOSPIRONE]
Number: 7.1

Sample COc1ccc(CCN(C)CCCOc2ccc(S(=O)(=O)c3c(C(C)C)cn4ccccc34)cc2)cc1OC [FANTOFARONE] — what was its Hepatotoxicity (moderate)?
2.7

Continue with CO[C@@]1(NC(=O)Cc2cccs2)C(=O)N2C(C(=O)O)=C(COC(N)=O)CS[C@@H]21 [CEFOXITIN]
25.8

Continue with CC(=O)O[C@H]1C[C@@]2(C)[C@@H](C[C@@H](O)[C@H]3[C@@]4(C)CC[C@@H](O)[C@@H](C)[C@@H]4CC[C@@]32C)/C1=C(\CCC=C(C)C)C(=O)O [FUSIDIC ACID]
50

Continue with Nc1ccc(C(=O)[O-])cc1.[K+] [AMINOBENZOATE POTASSIUM]
38

Continue with CN(C)C(=O)CCCOC(=O)C(C)(C)Oc1ccc(Cl)cc1 [CLOFIBRIDE]
0

----------
# Stated conditions: human
Reported Hepatotoxicity (cytolytic) values for the following molecules.
Answer with a number only.

# count of solved cases: 2
Molecule: COc1cc(NS(C)(=O)=O)ccc1Nc1c2ccccc2nc2ccccc12
Number: 2

Molecule: NS(=O)(=O)Cc1noc2ccccc12 [ZONISAMIDE]
Number: 0

Sample c1ccc2[nH]c(-c3cscn3)nc2c1 — what was its Hepatotoxicity (cytolytic)?
2

Continue with CC(=O)[C@]1(O)Cc2c(O)c3c(c(O)c2[C@@H](O[C@H]2C[C@H](N)[C@H](O)[C@H](C)O2)C1)C(=O)c1ccccc1C3=O
1

Continue with CC1=C(C(=O)O)N2C(=O)[C@@H](NC(=O)[C@H](N)c3ccccc3)[C@H]2SC1 [CEPHALEXIN ANHYDROUS]
3

----------
Reported Hepatotoxicity (choleostasis) values for the following compounds.
# Stated conditions: human
Answer with a number only.

# count of solved cases: 3
Compound: NC(=O)OCC(COC(N)=O)c1ccccc1 [FELBAMATE]
Hepatotoxicity (choleostasis): 0

Compound: FCOC(C(F)(F)F)C(F)(F)F [SEVOFLURANE]
Hepatotoxicity (choleostasis): 0

Compound: COc1ccc(C(=O)N2CCN(c3ccc4c(c3)CCC(=O)N4)CC2)cc1OC [VESNARINONE]
Hepatotoxicity (choleostasis): 0

Sample Nc1ccn([C@@H]2CS[C@H](CO)O2)c(=O)n1 [LAMIVUDINE] — what was its Hepatotoxicity (choleostasis)?
1

Continue with Cc1c(N)nc([C@@H](CC(N)=O)NC[C@@H](N)C(N)=O)nc1C(=O)N[C@@H](C(=O)N[C@@H](C)[C@H](O)[C@@H](C)C(=O)N[C@H](C(=O)NCCc1nc(-c2nc(C(=O)NCCCN(C)CCCN(Cc3ccc(OCc4ccccc4)c(OCc4ccccc4)c3)Cc3ccc(OCc4ccccc4)c(OCc4ccccc4)c3)cs2)cs1)[C@@H](C)O)C(O[C@H]1O[C@@H](CO)[C@H](O)[C@@H](O)[C@H]1O[C@H]1O[C@@H](CO)[C@@H](O)[C@H](OC(N)=O)[C@@H]1O)c1c[nH]cn1 (stereo partly specified)
0

Continue with O=C(O)COc1ccc(C(=O)c2cccs2)c(Cl)c1Cl
8

----------
Reported Hepatotoxicity (acute) values for the following compounds.
# Method: Highest frequency of acute liver toxicity observed during clinical trials, expressed as a percentage. [column '% AIGUE' in source]
# Stated conditions: human
Please respond with the number in % and leave the unit unwritten.

Compound: CC(C)(CNC(N)=O)NCC(O)COC(=O)c1ccccc1F (configuration not stated)
Recorded endpoint: Hepatotoxicity (acute)
Units text: %
Number: 0
--
Compound: COc1cc(N)c(Cl)cc1C(=O)NC1CCN(CCCOc2ccc(F)cc2)CC1OC (configuration not stated) [CISAPRIDE]
Recorded endpoint: Hepatotoxicity (acute)
Units text: %
Number: 0
--
Compound: CC(C)NNC(=O)COc1ccc(Cl)cc1 [IPROCLOZIDE]
Recorded endpoint: Hepatotoxicity (acute)
Units text: %
Number: 0

Sample CN1C(CCl)Nc2cc(Cl)c(S(N)(=O)=O)cc2S1(=O)=O (configuration not stated) [METHYCLOTHIAZIDE] — what was its Hepatotoxicity (acute)?
0

Continue with CC[C@H](c1ccc(O)cc1)[C@@H](CC)c1ccc(O)cc1
0

Continue with Nc1nnc(-c2cccc(Cl)c2Cl)c(N)n1
0

Continue with CC[C@]1(O)C[C@@H]2CN(CCc3c([nH]c4ccccc34)[C@@](C(=O)OC)(c3cc4c(cc3OC)N(C)[C@H]3[C@@](O)(C(=O)OC)[C@H](OC(C)=O)[C@]5(CC)C=CCN6CC[C@]43[C@@H]65)C2)C1
0

Continue with CC(=O)N1CCN(c2ccc(OCC3COC(Cn4ccnc4)(c4ccc(Cl)cc4Cl)O3)cc2)CC1 (configuration not stated)
2.9

Continue with C#CCN(C)[C@H](C)Cc1ccccc1
0

Continue with O=P1(NCCCl)OCCCN1CCCl (configuration not stated) [IFOSFAMIDE]
6

Continue with CN(C)CCN1C(=O)c2cccc3cc(N)cc(c23)C1=O [AMONAFIDE]
0

Continue with O=c1[nH]c(=O)n([C@H]2C[C@H](O)[C@@H](CO)O2)cc1F
60

Continue with Nc1nc(N)nc(Nc2ccc([As]3SCC(CO)S3)cc2)n1 (configuration not stated)
0

Continue with CN(C)CCCN1c2ccccc2C(C)(C)c2ccccc21
0

Continue with CO[C@H]1/C=C/O[C@@]2(C)Oc3c(C)c(O)c4c(O)c(cc(O)c4c3C2=O)NC(=O)/C(C)=C\C=C\[C@H](C)[C@H](O)[C@@H](C)[C@@H](O)[C@@H](C)[C@H](OC(C)=O)[C@@H]1C
2.3

Continue with O=C(O[C@@H]1C[C@@H]2C[C@H]3C[C@H](C1)N2CC3=O)c1c[nH]c2ccccc12
0

Continue with CCCC1O[C@@H]2C[C@H]3[C@@H]4CCC5=CC(=O)C=C[C@]5(C)[C@H]4[C@@H](O)C[C@]3(C)[C@]2(C(=O)CO)O1 (some centres not stated) [BUDESONIDE]
0
